Hey, just so you know, these numbers are from PubChem BioAssay (NCI).

- System: MDA-MB-468 breast
- test_name: NCI-60 one-dose screen, 48 h (100 = growth as untreated, 0 = no growth, -100 = all killed)
- test_parameters: 10 µM unless noted
About 83,000 compounds went through this panel and 20% of them were active in at least one assay; those are over-represented in the sample as a whole.
# true (1) = growth below 70% (exclusive); false (0) = growth at/above 70%

Query block: Item C=COC(=O)C(C)(C)C : growth beneath 70%, strictly?
Result block: false (0)

Query block: Dear colleague, could you confirm whether growth of O=C(Nc1ccc2c(c1)OCCO2)C(=O)c1c[nH]c2ccccc12 falls below 70%? Thanks.
Result block: true (1)

Query block: Say whether its growth is strictly beneath 70%. Entry: COCCCNC(=O)c1nnn2c1nc(N)c1cc(Cl)ccc12
Result block: false (0)

Query block: Please determine if CCCCC[n+]1ccc(SCC(=O)N(C)c2ccc(Oc3ccccc3)cc2)c2ccccc21 is below 70% in terms of growth.
Result block: true (1)

Query block: Answer whether the molecule O=C(/C=C/C12c3ccccc3C(c3ccccc31)C1C(=O)NC(=O)C12)c1ccccn1 (stereo unspecified) has growth strictly less than 70%
Result block: true (1)

Query block: Lab note: confirm whether the reported growth for this molecule is below 70%, equality not counting. molecule: Cc1cccnc1NC1OC(=O)c2ccccc21 (stereo unspecified)
Result block: false (0)

Query block: Say whether its growth is strictly beneath 70%. Entry: COc1ccc(/C=c2\sc3n(c2=O)NC2C(N=3)N(C)C(=O)N2C)cc1 (stereo unspecified)
Result block: false (0)

Query block: Problem: For the molecule COc1ccc2c(c1)C(=O)c1c-2c(OCCN2CCCCC2)nc2ccc(OC)cc12 , is growth under 70%?
Result block: true (1)
